Test system: MDA-MB-435 melanoma
assay: NCI-60 one-dose screen, 48 h (100 = growth as untreated, 0 = no growth, -100 = all killed)
assay.setup: 10 µM unless noted
About 83,000 compounds went through this panel and 20% of them were active in at least one assay; those are over-represented in the sample as a whole.
A collection of compounds and their measured growth
reported.property: growth (%)

INSERT INTO measurements (compound, reported_property, reading) VALUES
  ('O=C1Nc2ccc(Cl)cc2C12Nc1cc(Cl)ccc1S2 (stereo unspecified)', 'growth', 91.4),
  ('COc1ccc2c(c1)cn1c3ccc(OC)cc3[nH]c(=O)c21', 'growth', -80),
  ('Cc1ccc(-c2csc(NC(=O)CCCCl)n2)cc1', 'growth', 103),
  ('Cc1ccc(S(=O)(=O)Nc2c(Br)cc(Br)cc2C(N)=O)cc1', 'growth', 108),
  ('C=C[C@@H]1C[C@H](O)Cc2ccccc2N1', 'growth', 107),
  ('C=C1CC2(OC1=O)C(=O)N(CCCN1C(=O)C3(CC(=C)C(=O)O3)c3ccccc31)c1ccccc12 (stereo unspecified)', 'growth', -17.1),
  ('N=C(N)c1ccc(-c2ccc(-c3cncc4ccccc34)s2)cc1F', 'growth', -90.5),
  ('S=c1[nH]nc(-c2cc3ccc2CCc2ccc(cc2)CC3)n1-c1ccccc1', 'growth', 93.3),
  ('CN(C)CCCN(c1nc(C(Cl)(Cl)Cl)ns1)c1nc(C(Cl)(Cl)Cl)ns1', 'growth', 39.5),
  ('ClC(Cl)c1nc(-c2cccnc2)n2nc(-c3ccccc3)cc2n1', 'growth', 0.991),
  ('C=CCn1c2ccccc2c2c3c(c4c5ccccc5n(CC=C)c4c21)C(=O)N(O)C3=O', 'growth', 42.7);
